experiment: activity coefficient (dimensionless); of the first substance listed, at infinite dilution; xn = mol fraction of the nth substance listed; settings: 330 K; Liquid; x1 = 0
assayMetric: activity coefficient

## Task Value lookup for activity coefficient; key = C=CC=C [1,3-butadiene] + CCCCO
## Result 2.8

## Task Value lookup for activity coefficient; key = CCCC [butane] + CCCCO
## Result 3.9

## Task Value lookup for activity coefficient; key = C=CC [propene] + CCCCO
## Result 3

## Task Value lookup for activity coefficient; key = C=CCC [1-butene] + CCCCO
## Result 3.2

## Task Value lookup for activity coefficient; key = CC(C)C [2-methylpropane] + CCCCO
## Result 4.1

## Task Value lookup for activity coefficient; key = CC(C)C [2-methylpropane] + CCC(C)O
## Result 3.8

## Task Value lookup for activity coefficient; key = CCCC [butane] + CCC(C)O
## Result 3.6

====

assay: activity coefficient (dimensionless); of the first substance listed, at infinite dilution; xn = mol fraction of the nth substance listed; conditions: 310.01 K; Liquid; x1 = 0
assayMetric: activity coefficient

## Task Value lookup for activity coefficient; key = C=CC=C [1,3-butadiene] + CCCCO
## Result 2.9

## Task Value lookup for activity coefficient; key = CCCC [butane] + CCCCO
## Result 4

## Task Value lookup for activity coefficient; key = C=C(C)C [2-methylpropene] + CCCCO
## Result 3.3

## Task Value lookup for activity coefficient; key = CC(C)C [2-methylpropane] + CCCCO
## Result 4.3

====

test: activity coefficient (dimensionless); of the first substance listed, at infinite dilution; xn = mol fraction of the nth substance listed; details: 270.04 K; Liquid; x1 = 0
assayMetric: activity coefficient

## Task Value lookup for activity coefficient; key = C=CC=C [1,3-butadiene] + CCCCO
## Result 2.9

## Task Value lookup for activity coefficient; key = CCCC [butane] + CCCCO
## Result 4.1

## Task Value lookup for activity coefficient; key = CC(C)C [2-methylpropane] + CCCCO
## Result 4.4

## Task Value lookup for activity coefficient; key = C=C(C)C [2-methylpropene] + CCCCO
## Result 3.4

====

assay: activity coefficient (dimensionless); of the first substance listed, at infinite dilution; xn = mol fraction of the nth substance listed; conditions: 249.97 K; Liquid; x1 = 0
assayMetric: activity coefficient

## Task Value lookup for activity coefficient; key = CCC [propane] + CCC(C)O
## Result 3.6

## Task Value lookup for activity coefficient; key = C/C=C/C [(E)-2-butene] + CCC(C)O
## Result 3.7

## Task Value lookup for activity coefficient; key = CC(C)C [2-methylpropane] + CCC(C)O
## Result 4.4

## Task Value lookup for activity coefficient; key = C=CC [propene] + CCC(C)O
## Result 3.1

## Task Value lookup for activity coefficient; key = C=CCC [1-butene] + CCC(C)O
## Result 3.7

====

experiment: activity coefficient (dimensionless); of the first substance listed, at infinite dilution; xn = mol fraction of the nth substance listed; settings: 250.01 K; Liquid; x1 = 0
assayMetric: activity coefficient

## Task Value lookup for activity coefficient; key = C=C(C)C [2-methylpropene] + CCCCO
## Result 3.4

## Task Value lookup for activity coefficient; key = C=CC=C [1,3-butadiene] + CCCCO
## Result 3

## Task Value lookup for activity coefficient; key = C=CCC [1-butene] + CCCCO
## Result 3.5

## Task Value lookup for activity coefficient; key = CC(C)C [2-methylpropane] + CCCCO
## Result 4.4

## Task Value lookup for activity coefficient; key = CCC [propane] + CCCCO
## Result 3.6

## Task Value lookup for activity coefficient; key = C/C=C/C [(E)-2-butene] + CCCCO
## Result 3.4

## Task Value lookup for activity coefficient; key = CCCC [butane] + CCCCO
## Result 4.1

meta.source: the NIST ThermoML archive (doi:10.1021/je034265f)
